Target: wild-type Choristoneura fumiferana EcR (D, E and F domains) (Choristoneura fumiferana, UniProt O77240)
Type: cell-based
Details: S; WT-CtEcR, 3T3 Cells
pEC50: −log10 of the molar value.
Consider the following compounds; for each one, report its pEC50.

Worked cases, pEC50 given:
entry_smiles: CCC[C@H](N(NC(=O)c1cccc(C)c1)C(=O)c1cc(C)cc(C)c1)C(C)(C)C
value_reported: ~5.48

entry_smiles: CCC[C@H](N(NC(=O)c1ccccc1F)C(=O)c1cc(C)cc(C)c1)C(C)(C)C
value_reported: 6.28

entry_smiles: CCC[C@H](N(NC(=O)c1cccs1)C(=O)c1cc(C)cc(C)c1)C(C)(C)C
value_reported: ~5.00

entry_smiles: CCC[C@H](N(NC(=O)c1ccccc1Br)C(=O)c1cc(C)cc(C)c1)C(C)(C)C
value_reported: ~5.48

entry_smiles: CCC[C@H](N(NC(=O)c1cccnc1Cl)C(=O)c1cc(C)cc(C)c1)C(C)(C)C
value_reported: ~4.70

entry_smiles: C=CC[C@H](N(NC(=O)OCc1ccccc1)C(=O)c1cc(C)cc(C)c1)C(C)(C)C
value_reported: < 5.00

entry_smiles: CCC[C@H](N(NC(=O)c1cccc(OC)c1CC)C(=O)c1cc(C)cc(C)c1)C(C)(C)C
value_reported: 6.87

Q: Which pEC50 value is on record for `CCC[C@H](N(NC(=O)c1c(Cl)cccc1Cl)C(=O)c1cc(C)cc(C)c1)C(C)(C)C` ?
Result: ~5.48
